Origin of measurements: paper PMC12019622

assay: Tissue distribution: blood concentration and brain distribution by HPLC; assay type: in vivo, C57BL/6 (B6) mice; conditions: male, C57BL/6, mouse, brain, intraperitoneal, 2 mg/kg
Outcome measure: concentration at 6 h (ng/g)
Quick reminder: number only, in ng/g, skip the unit.

**Q:** Complete the entry with concentration at 6 h for COCOc1cc(/C=C/C(=O)/C=C/c2cc(OCOC)cc(OCOC)c2)cc(OCOC)c1 [GO-Y030]
**A:** 23.1
